Reference source for all entries: patent US9204653B2

Test system: Mycosphaerella graminicola; Anamorph: Septoria tritici; Bayer Code SEPTTR
method: Leaf blotch of wheat, foliar fungicide treatment, one day protectant (1DP) or three day curative (3DC)
Assay type: in vivo, Septoria tritici on wheat plants (variety Yuma)
conditions: Zymoseptoria tritici, 24 h, one day protectant (1DP), 25 ppm, rating of percent disease control, read-out: SETTTR 1DP 25 ppm
Kindly state pest or weed control at 25 ppm for each of the entries shown.

Ask: Lab note: need pest or weed control at 25 ppm with Mycosphaerella graminicola; Anamorph: Septoria tritici; Bayer Code SEPTTR for entry O=[N+]([O-])c1ccccc1SNc1nc(OCc2ccc(F)c(F)c2)ncc1F , please look it up.
Reply: 76 to 100%

Ask: Please state recorded pest or weed control at 25 ppm (tested on Mycosphaerella graminicola; Anamorph: Septoria tritici; Bayer Code SEPTTR) of Fc1cnc(OCc2ccccc2)nc1NNc1ccccn1
Reply: 0 to 25%

Ask: For the record CC(C)(C)Oc1cccc(COc2ncc(F)c(N)n2)c1 , what value of pest or weed control at 25 ppm is listed for Mycosphaerella graminicola; Anamorph: Septoria tritici; Bayer Code SEPTTR?
Reply: 76 to 100%

Ask: Form entry - test system: Mycosphaerella graminicola; Anamorph: Septoria tritici; Bayer Code SEPTTR; read-out: pest or weed control at 25 ppm; compound: CS(=O)(=O)Oc1ncc(F)c(N)n1
Reply: 26 to 50%

Ask: Notebook: pull reported pest or weed control at 25 ppm for Mycosphaerella graminicola; Anamorph: Septoria tritici; Bayer Code SEPTTR, entry Cn1nc(C(F)(F)F)c(COc2ncc(F)c(N)n2)c1Cl
Reply: 76 to 100%

Ask: Can you look up pest or weed control at 25 ppm on Mycosphaerella graminicola; Anamorph: Septoria tritici; Bayer Code SEPTTR for COc1ccc(COc2ncc(F)c(NCO)n2)cc1F ?
Reply: 76 to 100%

Ask: Form entry - test system: Mycosphaerella graminicola; Anamorph: Septoria tritici; Bayer Code SEPTTR; read-out: pest or weed control at 25 ppm; compound: CCCCCOC(=O)Nc1nc(OCc2cccc(F)c2)ncc1F
Reply: 76 to 100%

Ask: GET /values?readout=pest or weed control at 25 ppm&system=Mycosphaerella graminicola; Anamorph: Septoria tritici; Bayer Code SEPTTR&item= CCOCNc1nc(OC(C)c2ccc(F)cc2)ncc1F (stereo not shown)
Reply: 76 to 100%

Ask: Provide the documented pest or weed control at 25 ppm with Mycosphaerella graminicola; Anamorph: Septoria tritici; Bayer Code SEPTTR as the system for CC(Oc1ncc(F)c(N)n1)c1c(Cl)ccc(Cl)c1Cl (stereo not shown)
Reply: 76 to 100%

Ask: API: value(readout= pest or weed control at 25 ppm, system= Mycosphaerella graminicola; Anamorph: Septoria tritici; Bayer Code SEPTTR, query= Cc1cc(COc2ncc(F)c(N)n2)nn1C )
Reply: 76 to 100%
